# protocolSummary: CellTitre Glo viability assay
# Format: cell-based
# measurementContext: human; HEK293FT cells, 370 nM, 72 hours, vs DMSO control; read-out: reduction in viability
parameter: cytotoxicity at 72 h, 370 nM (%)
Record the value in %, omitting the unit from your answer.

Req: Form field: reported cytotoxicity at 72 h, 370 nM of NC(=S)N/N=C/c1ncccc1N
Resp: 23
